# Measured target: T1, 4H3855-bH
# T1 chain: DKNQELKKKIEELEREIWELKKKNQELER
# Experiment notes: two-hybrid library CCNG1;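 further: natural log of median RNA to DNA barcode read ratio; higher means stronger binding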
Measurement kind: interaction score

Reference set, count: 4
Binder | Measurement kind | Result
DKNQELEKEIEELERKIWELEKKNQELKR [4H3112-bH] | interaction score | 0.754
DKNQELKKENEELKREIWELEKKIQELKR [4H3782-bH] | interaction score | 0.0378
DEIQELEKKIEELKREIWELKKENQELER [4H331-bH] | interaction score | 0.334
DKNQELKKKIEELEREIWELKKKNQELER [4H3855-bH] | interaction score | -1.88

Okay, here is my list. What is interaction score for each of these?
1. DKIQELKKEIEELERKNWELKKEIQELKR [4H2618-bH]
2. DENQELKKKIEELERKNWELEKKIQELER [4H1845-bH]
3. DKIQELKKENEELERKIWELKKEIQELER [4H2729-bH]

1. -0.442
2. -0.295
3. 0.286

Okay, here is my list. What is interaction score for each of these?
1. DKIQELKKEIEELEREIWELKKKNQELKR [4H2576-bH]
2. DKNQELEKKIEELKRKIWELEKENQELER [4H3427-bH]
3. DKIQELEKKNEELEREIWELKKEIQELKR [4H2442-bH]
4. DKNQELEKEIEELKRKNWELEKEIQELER [4H3185-bH]

1: 0.305; 2: 0.0459; 3: -1.1; 4: -0.899

Okay, here is my list. What is interaction score for each of these?
1. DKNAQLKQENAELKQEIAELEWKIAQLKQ [4H3782-bA]
2. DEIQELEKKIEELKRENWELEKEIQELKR [4H338-bH]
3. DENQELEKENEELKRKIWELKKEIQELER [4H1257-bH]
4. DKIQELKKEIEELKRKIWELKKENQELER [4H2667-bH]
5. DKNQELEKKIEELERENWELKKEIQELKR [4H3354-bH]
6. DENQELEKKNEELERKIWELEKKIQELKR [4H1446-bH]
7. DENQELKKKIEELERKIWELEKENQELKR [4H1828-bH]

[0.603, 0.141, -0.288, 0.693, -0.383, 0.34, 0.0964]

Origin of values: paper PMC10397247
